- method_notes: AUC (0 to 12 hrs) in human at 100 mg, po bid for 10 days pretreated with paroxetin at 20 mg, po qd for 10 days followed by 16 days washout period then coadministered with paroxetin at 20 mg, po qd and fosamprenavir at 700 mg, po bid for 10 days
- Assay type: ADME, organism-based
- Design: time < 12 hr, dose 100 mg, route oral
- test_conditions: plasma

cpd_smiles: CC(C)c1nc(CN(C)C(=O)N[C@H](C(=O)N[C@@H](Cc2ccccc2)C[C@H](O)[C@H](Cc2ccccc2)NC(=O)OCc2cncs2)C(C)C)cs1
AUC at 12 h / ng·h/mL: 5100

###

- method_notes: Apparent volume of distribution in human
- Type: ADME, organism-based
- test_conditions: in vivo, read-out: Vz

cpd_smiles: Fc1ccc([C@@H]2CCNC[C@H]2COc2ccc3c(c2)OCO3)cc1
Vd: 8.7 L/kg

Where do the numbers come from? From ChEMBL document CHEMBL1137661.
